Measured log10 of IC50 values are reported for all entries that follow.
# Test system: LNCaP
# measurement-protocol: Antiproliferative activity against human LNCAP cells assessed as reduction in cell viability after 96 hrs by MTT assay
# Type: functional, cell-based
value-kind: log10 of IC50 (log10 of the value in µM)

molecule	system	log10 of IC50
CC(CS(=O)(=O)c1cc(C(F)(F)F)cc(C(F)(F)F)c1)C(=O)Nc1ccc(C#N)cc1C(F)(F)F (racemic)	LNCaP	0.98
CC(CS(=O)(=O)c1ccc(F)cc1)C(=O)Nc1ccc([N+](=O)[O-])c(C(F)(F)F)c1 (racemic)	LNCaP	0.43
CC(CS(=O)(=O)c1cccc(OC(F)(F)F)c1)C(=O)Nc1ccc(C#N)c(C(F)(F)F)c1 (racemic)	LNCaP	1.12
CC(CS(=O)(=O)c1cc(C(F)(F)F)cc(C(F)(F)F)c1)C(=O)Nc1ccc([N+](=O)[O-])c(C(F)(F)F)c1 (racemic)	LNCaP	1.09
CC(CS(=O)(=O)c1ccc(C(F)(F)F)cc1)C(=O)Nc1ccc([N+](=O)[O-])cc1C(F)(F)F (racemic)	LNCaP	1.42
CC(CS(=O)(=O)c1ccc(F)cc1)C(=O)Nc1ccc([N+](=O)[O-])cc1C(F)(F)F (racemic)	LNCaP	0.61
CNC(=O)c1ccc(N2C(=S)N(c3ccc(C#N)c(C(F)(F)F)c3)C(=O)C2(C)C)cc1F [ENZALUTAMIDE]	LNCaP	0.12

###

# Test system: LNCaP
# measurement-protocol: Antiproliferative activity against human LNCAP cells assessed as reduction in cell viability after 96 hrs by MTT assay
# Type: functional, cell-based
Could you mark each record criterion met if its IC50 falls strictly under 20 µM, and criterion not met if it equals or exceeds it?

compound	cat
CC(CS(=O)(=O)c1ccc(C(F)(F)F)cc1)C(=O)Nc1ccc(C#N)cc1C(F)(F)F (racemic)	criterion not met
CC(CSc1ccc(F)cc1)C(=O)Nc1ccc(C#N)c(C(F)(F)F)c1 (racemic)	criterion met
CC(CSc1cccc(OC(F)(F)F)c1)C(=O)Nc1ccc(C#N)c(C(F)(F)F)c1 (racemic)	criterion not met
CC(CSc1cc(C(F)(F)F)cc(C(F)(F)F)c1)C(=O)Nc1ccc(C#N)cc1C(F)(F)F (racemic)	criterion met
CC(CS(=O)(=O)c1ccc(C(F)(F)F)cc1)C(=O)Nc1ccc([N+](=O)[O-])c(C(F)(F)F)c1 (racemic)	criterion met
CC(CS(=O)(=O)c1ccc(F)cc1)C(=O)Nc1ccc(C#N)c(C(F)(F)F)c1 (racemic)	criterion not met
CC(CSc1ccc(F)cc1)C(=O)Nc1ccc([N+](=O)[O-])c(C(F)(F)F)c1 (racemic)	criterion not met
CC(CS(=O)(=O)c1cc(C(F)(F)F)cc(C(F)(F)F)c1)C(=O)Nc1ccc(C#N)c(C(F)(F)F)c1 (racemic)	criterion met
CC(CS(=O)(=O)c1ccc(C(F)(F)F)cc1)C(=O)Nc1ccc(C#N)c(C(F)(F)F)c1 (racemic)	criterion not met
CC(CSc1ccc(C(F)(F)F)cc1)C(=O)Nc1ccc([N+](=O)[O-])cc1C(F)(F)F (racemic)	criterion not met
CC(CSc1cc(C(F)(F)F)cc(C(F)(F)F)c1)C(=O)Nc1ccc([N+](=O)[O-])cc1C(F)(F)F (racemic)	criterion not met
CC(CS(=O)(=O)c1cc(C(F)(F)F)cc(C(F)(F)F)c1)C(=O)Nc1ccc([N+](=O)[O-])cc1C(F)(F)F (racemic)	criterion met

This collection of values is drawn from ChEMBL document CHEMBL4339184.
